assaySystem: integrin proteins on the cell surface
Where no end group is shown, it is not given here.
This section presents binders with their documented IC50 (µg/ml), inhibition of human rotavirus Wa infection of MA-104 cells values.
Provide only the numeric value, understood in µg/mL.

binder	reportedMeasurement
QNDGECHVIDDSHRGDVFTQ (not fully specified) [peptidic compound of SEQ ID NO: 1 (QNDGECHVIDDSHRGDVFTQ)]	3.9
SHRGDVFT (not fully specified) [peptidic compound of SEQ ID NO: 5 (S-H-R-G-D-V-F-T)]	102
EVRGDVFP (not fully specified) [Hu-RGD: E-V-R-G-D-V-F-P]	95.3
QNDGECHV (not fully specified) [peptidic compound of SEQ ID NO: 3 (Q-N-D-G-E-C-H-V)]	15.6

Request: I'd like to know its IC50 (µg/ml), inhibition of human rotavirus Wa infection of MA-104 cells. The binder in question is SHRGDVFI (not fully specified) [Bo-RGD: S-H-R-G-D-V-F-I]
Response: 367

All figures here come from patent US8673849B2.
